experiment: DNDI: Lipophilicity measured in Chromatographic hydrophobicity index (CHI) assay, pH 7.4; assay type: physicochemical; conditions: buffer
Short version: chromatographic logD at least 5 is Y, less is N.

>>> answer_label("Cc1ccc(-c2nc(CNCCC3CCCN3C)c(C)o2)cc1 (centres undefined)")
"N"
>>> answer_label("CCCCOc1ccc(-c2nc(CNCCC3CCCN3C)co2)cc1 (centres undefined)")
"N"
>>> answer_label("CCC(C)C(NCc1ccccc1OC)c1nc(-c2ccccc2)c(N2CCCCC2)o1 (centres undefined)")
"Y"
>>> answer_label("CC(C)(C)c1ccc(-c2nc(CNC3CCCCCC3)co2)cc1")
"Y"
>>> answer_label("COc1ccc(CNC(CC(C)C)c2nc(Cc3ccccc3)c(N3CCOCC3)o2)cc1 (centres undefined)")
"Y"
>>> answer_label("CCCCCC(C)NCc1coc(-c2cccc(OCC)c2)n1 (centres undefined)")
"N"
>>> answer_label("Cc1cc(N2CCNCC2)n2nc(-c3cccc(F)c3)cc2n1")
"N"
>>> answer_label("CCCCCC(C)NCc1coc(-c2ccc(OC3CCCCC3)cc2)n1 (centres undefined)")
"N"
>>> answer_label("CCCCc1ccc(-c2nc(CNCc3c(OC)cccc3OC)co2)cc1")
"Y"
>>> answer_label("CCCCCC(C)NCc1coc(-c2ccc(Oc3ccccc3)cc2)n1 (centres undefined)")
"N"
>>> answer_label("O/N=C(\\CNC1CCCCC1)c1ccccc1")
"N"
>>> answer_label("CCCCCC(C)NCc1coc(-c2cccc(OC)c2)n1 (centres undefined)")
"N"
>>> answer_label("CCCCc1ccc(-c2nc(CNC3CC(C)CC(C)(C)C3)co2)cc1 (centres undefined)")
"Y"
>>> answer_label("CCN(CC)CCCNc1cc(-c2ccccc2)nc2cc(-c3ccc(F)cc3)nn12")
"N"
>>> answer_label("COc1cccc(/C(=N/O)NC2CCCCC2)c1")
"N"

The values you see were collected from ChEMBL document CHEMBL1857833.
